Test: The drug is tested on Z-002 corresponding to rabbit gut metagenome with ENA study accession number: PRJEB37062 and ENA sample accession number: ERS12561802 for biotransformation under anaerobic condition. The drug concentrations were measured over 9 timepoints collected between 0 and 24 hours of incubation by liquid-chromatography-coupled mass spectrometry (LC–MS); also: call rule not given here
Conditions: 2 µM
metric: Bacterial Biotransformation

1. CN(C)C(=O)C(CCN1CCC(O)(c2ccc(Cl)cc2)CC1)(c1ccccc1)c1ccccc1 [LOPERAMIDE] :: Compound metabolized
2. O=C(NCc1ccccc1)OCCO [BURAMATE] :: Compound NOT metabolized
3. COc1c(C)c2c(c(O)c1C/C=C(\C)CCC(=O)OCCN1CCOCC1)C(=O)OC2 [MYCOPHENOLATE MOFETIL] :: Compound metabolized
4. CC(CN(C)C)CN1c2ccccc2CCc2ccccc21.O=C(O)/C=C\C(=O)O (centres undefined) [TRIMIPRAMINE MALEATE] :: Compound NOT metabolized

* * *

Assay: The drug is tested on Z-012 corresponding to metagenome with ENA study accession number: PRJEB37062 and ENA sample accession number: ERS12561812 for biotransformation under anaerobic condition. The drug concentrations were measured over 9 timepoints collected between 0 and 24 hours of incubation by liquid-chromatography-coupled mass spectrometry (LC–MS)
Settings: 2 µM
metric: Bacterial Biotransformation

These recorded examples may help you get a feel for the data.
1. COC1=CC(=O)C[C@@H](C)[C@]12Oc1c(Cl)c(OC)cc(OC)c1C2=O :: Compound metabolized
2. c1ccc([C@H]2CN3CCSC3=N2)cc1 :: Compound NOT metabolized
3. Cc1nc(-c2ccc(OCC(C)C)c(C#N)c2)sc1C(=O)O :: Compound NOT metabolized
4. CCCc1nc(C(C)(C)O)c(C(=O)OCc2oc(=O)oc2C)n1Cc1ccc(-c2ccccc2-c2nnn[nH]2)cc1 :: Compound metabolized

Query: Recall and state the measured Bacterial Biotransformation for CCc1nn(CCCN2CCN(c3cccc(Cl)c3)CC2)c(=O)n1CCOc1ccccc1 .
Reply: Compound NOT metabolized

Query: Recall and state the measured Bacterial Biotransformation for CCOC(=O)[C@H](CCc1ccccc1)N[C@@H](C)C(=O)N1[C@H](C(=O)O)C[C@@H]2CCC[C@@H]21 .
Reply: Compound metabolized

* * *

Details: human gut metagenome, 24 h, 2 µM
metric: Bacterial Biotransformation

These recorded examples may help you get a feel for the data.
1. CCCCc1nc(Cl)c(CO)n1Cc1ccc(-c2ccccc2-c2nn[nH]n2)cc1 :: Compound metabolized
2. CCC1(c2ccc(N)cc2)CCC(=O)NC1=O (configuration not stated) [AMINOGLUTETHIMIDE] :: Compound NOT metabolized
3. COc1ccccc1N1CCN(CC(O)COc2cccc3ccccc23)CC1 (configuration not stated) :: Compound NOT metabolized
4. Cc1nc2n(c(=O)c1CCN1CCC(c3noc4cc(F)ccc34)CC1)CCCC2O (configuration not stated) :: Compound metabolized
5. COc1c2occc2cc2ccc(=O)oc12 :: Compound metabolized

Query: Recall and state the measured Bacterial Biotransformation for CC(C)OC(=O)C(C)(C)Oc1ccc(C(=O)c2ccc(Cl)cc2)cc1 [FENOFIBRATE] .
Reply: Compound metabolized

Query: Recall and state the measured Bacterial Biotransformation for O=c1[nH]c2ccccc2n1C1CCN(CCCC(c2ccc(F)cc2)c2ccc(F)cc2)CC1 [PIMOZIDE] .
Reply: Compound metabolized

* * *

Conditions: human gut metagenome, 24 h, 2 µM
metric: Bacterial Biotransformation

These recorded examples may help you get a feel for the data.
1. CN1CC(=O)N2[C@H](c3ccc4c(c3)OCO4)c3[nH]c4ccccc4c3C[C@@H]2C1=O :: Compound metabolized
2. COc1ccccc1OCC(O)COC(N)=O (centres undefined) :: Compound NOT metabolized
3. CCC(=O)NCC[C@@H]1CCc2ccc3c(c21)CCO3 :: Compound metabolized
4. NC(CO)(CO)CO.O=C(c1ccccc1)c1ccc2n1CCC2C(=O)O (centres undefined) :: Compound metabolized
5. CCc1nn(CCCN2CCN(c3cccc(Cl)c3)CC2)c(=O)n1CCOc1ccccc1 :: Compound metabolized
6. CN1CCc2cccc3c2[C@H]1Cc1ccc(O)c(O)c1-3 :: Compound NOT metabolized
7. OCCOCCN1CCN(C2=Nc3ccccc3Sc3ccccc32)CC1 :: Compound NOT metabolized
8. OCCN1CCN(CCCN2c3ccccc3Sc3ccc(C(F)(F)F)cc32)CC1 :: Compound metabolized

Kindly consider the entry below.
Query: Recall and state the measured Bacterial Biotransformation for Cc1cc2c(cc1S(N)(=O)=O)S(=O)(=O)CCC2 .
Reply: Compound NOT metabolized

* * *

Experiment: The drug is tested on WLS-073 corresponding to human gut metagenome with ENA study accession number: PRJEB37062 and ENA sample accession number: ERS12561749 for biotransformation under anaerobic condition. The drug concentrations were measured over 9 timepoints collected between 0 and 24 hours of incubation by liquid-chromatography-coupled mass spectrometry (LC–MS)
Details: 2 µM
metric: Bacterial Biotransformation

1) Cc1cn([C@H]2C[C@H](N=[N+]=[N-])[C@@H](CO)O2)c(=O)[nH]c1=O [ZIDOVUDINE] :: Compound NOT metabolized
2) CC[C@@H](CO)NC(=O)[C@@H]1C=C2c3cccc4c3c(cn4C)C[C@H]2N(C)C1.O=C(O)/C=C\C(=O)O [METHYSERGIDE MALEATE] :: Compound NOT metabolized

* * *

Test: The drug is tested on WLS-350 corresponding to human gut metagenome with ENA study accession number: PRJEB37062 and ENA sample accession number: ERS12561789 for biotransformation under anaerobic condition. The drug concentrations were measured over 9 timepoints collected between 0 and 24 hours of incubation by liquid-chromatography-coupled mass spectrometry (LC–MS)
Conditions: 2 µM
metric: Bacterial Biotransformation

1) CCN(CC)CC#CCOC(=O)C(O)(c1ccccc1)C1CCCCC1.Cl (stereo not drawn) [OXYBUTYNIN CHLORIDE] :: Compound metabolized
2) COc1ccc2[nH]c([S+]([O-])Cc3ncc(C)c(OC)c3C)nc2c1 (stereo not drawn) [OMEPRAZOLE] :: Compound metabolized

* * *

Experiment: The drug is tested on Z-001 corresponding to mouse gut metagenome with ENA study accession number: PRJEB37062 and ENA sample accession number: ERS12561801 for biotransformation under anaerobic condition. The drug concentrations were measured over 9 timepoints collected between 0 and 24 hours of incubation by liquid-chromatography-coupled mass spectrometry (LC–MS)
Details: 2 µM
metric: Bacterial Biotransformation

These recorded examples may help you get a feel for the data.
1) O=c1[nH]c2ccccc2n1CCCN1CCC(n2c(=O)[nH]c3cc(Cl)ccc32)CC1 :: Compound NOT metabolized
2) CC(=O)OCC(=O)[C@@]12N=C(C)O[C@@H]1C[C@H]1[C@@H]3CCC4=CC(=O)C=C[C@]4(C)[C@H]3[C@@H](O)C[C@@]12C :: Compound metabolized
3) CN1CCc2cccc3c2[C@H]1Cc1ccc(O)c(O)c1-3 :: Compound NOT metabolized
4) CCCCC1=NC2(CCCC2)C(=O)N1Cc1ccc(-c2ccccc2-c2nnn[nH]2)cc1 :: Compound metabolized
5) COC(=O)[C@H]1[C@H]2C[C@@H]3c4[nH]c5cc(OC)ccc5c4CCN3C[C@H]2C[C@@H](OC(=O)c2cc(OC)c(OC)c(OC)c2)[C@@H]1OC :: Compound NOT metabolized

Query: Recall and state the measured Bacterial Biotransformation for CC[C@H](C)C(=O)O[C@H]1C[C@@H](C)C=C2C=C[C@H](C)[C@H](CC[C@@H]3C[C@@H](O)CC(=O)O3)[C@H]21 .
Reply: Compound NOT metabolized

Query: Recall and state the measured Bacterial Biotransformation for CN1CCC(=C2c3ccccc3CCc3cccnc32)CC1.O=C(O)/C=C\C(=O)O.O=C(O)/C=C\C(=O)O [AZATADINE MALEATE] .
Reply: Compound NOT metabolized

Query: Recall and state the measured Bacterial Biotransformation for CC(C)c1c(C(=O)Nc2ccccc2)c(-c2ccccc2)c(-c2ccc(F)cc2)n1CC[C@@H](O)C[C@@H](O)CC(=O)O .
Reply: Compound NOT metabolized

Query: Recall and state the measured Bacterial Biotransformation for CC(=O)O[C@]1(C(C)=O)CC[C@H]2[C@@H]3C=C(Cl)C4=CC(=O)[C@@H]5C[C@@H]5[C@]4(C)[C@H]3CC[C@@]21C [CYPROTERONE ACETATE] .
Reply: Compound metabolized

Query: Recall and state the measured Bacterial Biotransformation for C[C@@H](CO)NC(=O)[C@@H]1C=C2c3cccc4[nH]cc(c34)C[C@H]2N(C)C1.O=C(O)/C=C\C(=O)O [ERGONOVINE MALEATE] .
Reply: Compound NOT metabolized

Query: Recall and state the measured Bacterial Biotransformation for CCC(COC(=O)c1cc(OC)c(OC)c(OC)c1)(c1ccccc1)N(C)C.O=C(O)/C=C\C(=O)O (configuration not stated) .
Reply: Compound NOT metabolized

Query: Recall and state the measured Bacterial Biotransformation for CN1C(=O)CCS(=O)(=O)C1c1ccc(Cl)cc1 (configuration not stated) .
Reply: Compound NOT metabolized

Query: Recall and state the measured Bacterial Biotransformation for Cc1nc2n(c(=O)c1CCN1CCC(c3noc4cc(F)ccc34)CC1)CCCC2 .
Reply: Compound metabolized

Query: Recall and state the measured Bacterial Biotransformation for CC(C)(C)NC[C@H](O)COc1ccccc1C1CCCC1.CC(C)(C)NC[C@H](O)COc1ccccc1C1CCCC1.O=S(=O)(O)O [PENBUTOLOL SULFATE] .
Reply: Compound metabolized

Query: Recall and state the measured Bacterial Biotransformation for COc1c(C)c2c(c(O)c1C/C=C(\C)CCC(=O)OCCN1CCOCC1)C(=O)OC2 [MYCOPHENOLATE MOFETIL] .
Reply: Compound metabolized

Query: Recall and state the measured Bacterial Biotransformation for CN/C(=N/CCSCc1nc[nH]c1C)NC#N .
Reply: Compound NOT metabolized

Query: Recall and state the measured Bacterial Biotransformation for CC(C)N(CCC(C(N)=O)(c1ccccc1)c1ccccn1)C(C)C.O=P(O)(O)O (configuration not stated) [DISOPYRAMIDE PHOSPHATE] .
Reply: Compound NOT metabolized
